Property: protein stability index; scope: individual variants
B1: DCAF4 (parent)
chain: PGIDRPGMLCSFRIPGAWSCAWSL

- Variants of: B1
- assay-overview: protein stability index of a GFP-peptide fusion (GPS, HEK-293T) (PSI 1-6); higher = more stable;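 note: lentivirally expressed fusions sorted by FACS into six bins by GFP to DsRed ratio, PSI derived from sequencing read proportions per bin multiplied by bin number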
- settings: c terminus: a fixed tail appended
The answer should be written as a number, with no unit following it.

Note to self: protein stability index recorded for PGIPRPGMLCSFRIPGAWSCAWSL was 2.56

Note to self: protein stability index recorded for PGIDRPGMLCSDRIPGAWSCAWSL was 2.19

Note to self: protein stability index recorded for PGIDRPGMLCSFRIPGAWSCAWCL was 1.89

Note to self: protein stability index recorded for PGIDRPGGLCSFRIPGAWSCAWSL was 3.31

Note to self: protein stability index recorded for PGIDRPGMLCSFRIPGAWSCAWST was 3.74

Note to self: protein stability index recorded for PGIDRPGMLCSFRIPGYWSCAWSL was 2.95

Note to self: protein stability index recorded for PGIDRPGMLCSFRIPGAWPCAWSL was 1.66

Note to self: protein stability index recorded for PSIDRPGMLCSFRIPGAWSCAWSL was 2.55
